- Tested on: SARS-CoV-2
- method notes: Cytopathic effect (CPE) suppression effect confirmation test using VeroE6/TMPRSS2 cells
- Format: cell-based
- test context: Severe acute respiratory syndrome coronavirus 2, VeroE6/TMPRSS2, Omicron BA.1.1 strain (TY38-871)
measured endpoint: pEC50
Note: pEC50 values are expressed as the negative base-10 logarithm of concentration in M.

Hello, I am looking for reported pEC50 with SARS-CoV-2 for Cn1cnc(Cn2c(=O)[nH]/c(=N\c3cc4cn(C)nc4cc3Cl)n(Cc3cc(F)c(F)cc3F)c2=O)n1 . Could you help?
6.44

###

- Tested on: SARS-CoV-2
- method notes: Cytopathic effect (CPE) suppression effect confirmation test using VeroE6/TMPRSS2 cells
- Assay type: cell-based
- test context: Severe acute respiratory syndrome coronavirus 2, VeroE6/TMPRSS2, Omicron BA.2.12.1 strain (TY41-721)
measured endpoint: EC50 (nM)
Write the value in nM as a bare number.

Look at this compound and give its reported EC50. Cn1cnc(Cn2c(=O)[nH]/c(=N\c3cc4cn(C)nc4cc3Cl)n(Cc3cc(F)c(F)cc3F)c2=O)n1
240

###

- System: SARS-CoV-2
- method notes: Cytopathic effect (CPE) suppression effect confirmation test using VeroE6/TMPRSS2 cells
- Format: cell-based
- test context: Severe acute respiratory syndrome coronavirus 2, VeroE6/TMPRSS2, Alpha strain (QK002)
measured endpoint: EC50 (nM)
Write the value in nM as a bare number.

Hello, I am looking for reported EC50 with SARS-CoV-2 for Cn1cnc(Cn2c(=O)[nH]/c(=N\c3cc4cn(C)nc4cc3Cl)n(Cc3cc(F)c(F)cc3F)c2=O)n1 . Could you help?
330

###

- Test system: SARS-CoV-2
- method notes: Cytopathic effect (CPE) suppression effect confirmation test using VeroE6/TMPRSS2 cells
- Assay type: cell-based
- test context: Severe acute respiratory syndrome coronavirus 2, VeroE6/TMPRSS2, Omicron XBB.1 strain (TY41-795)
measured endpoint: EC50 (nM)
Write the value in nM as a bare number.

Look at this molecule and give its reported EC50. Cn1cnc(Cn2c(=O)[nH]/c(=N\c3cc4cn(C)nc4cc3Cl)n(Cc3cc(F)c(F)cc3F)c2=O)n1
330

###

- System: SARS-CoV-2
- method notes: Cytopathic effect (CPE) suppression effect confirmation test using VeroE6/TMPRSS2 cells
- Type: cell-based
- test context: Severe acute respiratory syndrome coronavirus 2, VeroE6/TMPRSS2, Omicron BA.2.75 strain (TY41-716)
measured endpoint: pEC50
Note: pEC50 values are expressed as the negative base-10 logarithm of concentration in M.

Look at this compound and give its reported pEC50. Cn1cnc(Cn2c(=O)[nH]/c(=N\c3cc4cn(C)nc4cc3Cl)n(Cc3cc(F)c(F)cc3F)c2=O)n1
6.52

###

- System: SARS-CoV-2
- method notes: Cytopathic effect (CPE) suppression effect confirmation test using VeroE6/TMPRSS2 cells
- Format: cell-based
- test context: Severe acute respiratory syndrome coronavirus 2, VeroE6/TMPRSS2, Omicron XE strain (TY41-686)
measured endpoint: pEC50
Note: pEC50 values are expressed as the negative base-10 logarithm of concentration in M.

Hello, I am looking for reported pEC50 with SARS-CoV-2 for Cn1cnc(Cn2c(=O)[nH]/c(=N\c3cc4cn(C)nc4cc3Cl)n(Cc3cc(F)c(F)cc3F)c2=O)n1 . Could you help?
6.36

###

- System: SARS-CoV-2
- method notes: Cytopathic effect (CPE) suppression effect confirmation test using VeroE6/TMPRSS2 cells
- Type: cell-based
- test context: Severe acute respiratory syndrome coronavirus 2, VeroE6/TMPRSS2, Alpha strain (QHN002)
measured endpoint: EC50 (nM)
Write the value in nM as a bare number.

Look at this compound and give its reported EC50. Cn1cnc(Cn2c(=O)[nH]/c(=N\c3cc4cn(C)nc4cc3Cl)n(Cc3cc(F)c(F)cc3F)c2=O)n1
460

###

- System: SARS-CoV-2
- method notes: Cytopathic effect (CPE) suppression effect confirmation test using VeroE6/TMPRSS2 cells
- Type: cell-based
- test context: Severe acute respiratory syndrome coronavirus 2, VeroE6/TMPRSS2, Gamma strain (TY7-501)
measured endpoint: pEC50
Note: pEC50 values are expressed as the negative base-10 logarithm of concentration in M.

Hello, I am looking for reported pEC50 with SARS-CoV-2 for Cn1cnc(Cn2c(=O)[nH]/c(=N\c3cc4cn(C)nc4cc3Cl)n(Cc3cc(F)c(F)cc3F)c2=O)n1 . Could you help?
6.30

###

- Test system: SARS-CoV-2
- method notes: Cytopathic effect (CPE) suppression effect confirmation test using VeroE6/TMPRSS2 cells
- Type: cell-based
- test context: Severe acute respiratory syndrome coronavirus 2, VeroE6/TMPRSS2, Omicron BQ.1.1 strain (TY41-796)
measured endpoint: EC50 (nM)
Write the value in nM as a bare number.

Look at this compound and give its reported EC50. Cn1cnc(Cn2c(=O)[nH]/c(=N\c3cc4cn(C)nc4cc3Cl)n(Cc3cc(F)c(F)cc3F)c2=O)n1
480
